- Test system: IGROV1 ovarian
- Protocol Summary: NCI tumour cell line growth inhibition, 48 h
Please go through the items and note down their TGI.

INPUT: For the compound shown here, `CNCc1cccc2c1OCCOCCOCCNS(=O)(=O)c1ccc(cc1)-c1cnc(N)c(n1)C(=O)N2` , give the reported TGI.
OUTPUT: 3.89 µM

INPUT: For the compound shown here, `N/C(=N\N=C\c1nc2ccccc2o1)c1cnccn1` , give the reported TGI.
OUTPUT: > 100 µM

INPUT: For the compound shown here, `O=C1/C(=C/c2ccc(Br)s2)NC(=S)N1CN1CCCCC1` , give the reported TGI.
OUTPUT: > 100 µM

INPUT: For the compound shown here, `CC1=N/C(=C\c2ccc(C)cc2)C(=O)O1` , give the reported TGI.
OUTPUT: > 100 µM

INPUT: For the compound shown here, `CN1S(=O)(=O)N(C)P12(N=P(CP(=NP13(N(C)S(=O)(=O)N1C)N(C)S(=O)(=O)N3C)(c1ccccc1)c1ccccc1)(c1ccccc1)c1ccccc1)N(C)S(=O)(=O)N2C` , give the reported TGI.
OUTPUT: > 100 µM

INPUT: For the compound shown here, `O=c1c2cc(Br)ccc2nc(CNc2ccccc2)n1-c1ccccc1` , give the reported TGI.
OUTPUT: 36.8 µM

INPUT: For the compound shown here, `Cn1cc(-c2ccc3c(c2)ncn3-c2cc(NS(=O)(=O)C3CC3)cc(-c3ccc(F)cc3F)c2)cn1` , give the reported TGI.
OUTPUT: 61.9 µM

INPUT: For the compound shown here, Cc1nn(C(=O)Cc2ccccc2)c2c1C(c1ccc(/C=C/c3ccccc3)cc1)SC(N)=N2 (stereo not given) , give the reported TGI.
OUTPUT: > 100 µM

INPUT: For the compound shown here, CCOC(OCC)(OCC)C(Br)CC (stereo not given) , give the reported TGI.
OUTPUT: > 100 µM

INPUT: For the compound shown here, `COC(=O)N/N=c1\cc(C(=O)Nc2ccc(C)c(C)c2)oc2cc(O)ccc12` , give the reported TGI.
OUTPUT: > 100 µM

INPUT: For the compound shown here, `CC(C)=CCC[C@@H](C)C1=C(N)C(O)=C(C)C(=O)C1=O` , give the reported TGI.
OUTPUT: > 75 µM

INPUT: For the compound shown here, CC(=O)NC(CCCNC(=O)OCc1ccccc1)C(=O)NCc1ccccc1 (stereo not given) , give the reported TGI.
OUTPUT: > 100 µM

INPUT: For the compound shown here, `COc1cc(/C=C/C(=O)c2nc3cc(F)ccc3nc2C)cc(OC)c1OC` , give the reported TGI.
OUTPUT: > 100 µM

INPUT: For the compound shown here, CCOc1ccc(OP2(=O)NC(=O)C=C(C)N2)cc1 (stereo not given) , give the reported TGI.
OUTPUT: > 100 µM

INPUT: For the compound shown here, Cc1cc2nnn(C3CCCCO3)c2cc1C (stereo not given) , give the reported TGI.
OUTPUT: > 100 µM

INPUT: For the compound shown here, `C#CCCCCCC(=O)N[C@H]1C=C[C@@H]2/C=C(C)/C=C/[C@@H](C)[C@H]([C@H](C)[C@H](O)[C@@H](C)NC(C)=O)OC(=O)/C=C/C=C(C)\C=C\[C@]2(C)C1` , give the reported TGI.
OUTPUT: > 40 µM

INPUT: For the compound shown here, `O=[N+]([O-])c1ccc2c3c1[C@@H]1O[C@@H]1c1cccc(c1-3)[C@@H]1O[C@H]21` , give the reported TGI.
OUTPUT: 2.72 µM

INPUT: For the compound shown here, COC(=O)c1c(C)cccc1C1CN=NC12Cc1cc(C)c(C)cc1C2=O (stereo not given) , give the reported TGI.
OUTPUT: > 100 µM

INPUT: For the compound shown here, CCN(CC)c1ccc(Cl)c2c1C(O)(C(C)C)C2(C)C (stereo not given) , give the reported TGI.
OUTPUT: 27.8 µM

INPUT: For the compound shown here, `CC1(C)CC2=NO[Se]3=C2C(=NO3)C1` , give the reported TGI.
OUTPUT: 6.43 µM
